Molecular target: Serotonin (5-HT) receptor
Test: In vitro inhibitory activity against serotonin receptor from whole rat brain using [3H]5-HT as radioligand
measuredEndpoint: IC50 (µM)
One number for each entry, in µM.

compound=CCCN1C[C@@H](CSC)C[C@@H]2Cc3c(O)cccc3C[C@H]21 quantityunit=µM testvalue=2

Note: attention shifts to another entry.
// query Fill blank: measured IC50 of the compound CCCN1C[C@H](CSC)C[C@@H]2c3cccc4[nH]cc(c34)C[C@H]21 [PERGOLIDE] is ____.
// result 0.385
